Provenance of the data: patent US10144734B2

Biological target: HEK-293 cells expressing a Kif5b-RET fusion protein (Homo sapiens)
Sequence (P07949 29-1114 limits assumed): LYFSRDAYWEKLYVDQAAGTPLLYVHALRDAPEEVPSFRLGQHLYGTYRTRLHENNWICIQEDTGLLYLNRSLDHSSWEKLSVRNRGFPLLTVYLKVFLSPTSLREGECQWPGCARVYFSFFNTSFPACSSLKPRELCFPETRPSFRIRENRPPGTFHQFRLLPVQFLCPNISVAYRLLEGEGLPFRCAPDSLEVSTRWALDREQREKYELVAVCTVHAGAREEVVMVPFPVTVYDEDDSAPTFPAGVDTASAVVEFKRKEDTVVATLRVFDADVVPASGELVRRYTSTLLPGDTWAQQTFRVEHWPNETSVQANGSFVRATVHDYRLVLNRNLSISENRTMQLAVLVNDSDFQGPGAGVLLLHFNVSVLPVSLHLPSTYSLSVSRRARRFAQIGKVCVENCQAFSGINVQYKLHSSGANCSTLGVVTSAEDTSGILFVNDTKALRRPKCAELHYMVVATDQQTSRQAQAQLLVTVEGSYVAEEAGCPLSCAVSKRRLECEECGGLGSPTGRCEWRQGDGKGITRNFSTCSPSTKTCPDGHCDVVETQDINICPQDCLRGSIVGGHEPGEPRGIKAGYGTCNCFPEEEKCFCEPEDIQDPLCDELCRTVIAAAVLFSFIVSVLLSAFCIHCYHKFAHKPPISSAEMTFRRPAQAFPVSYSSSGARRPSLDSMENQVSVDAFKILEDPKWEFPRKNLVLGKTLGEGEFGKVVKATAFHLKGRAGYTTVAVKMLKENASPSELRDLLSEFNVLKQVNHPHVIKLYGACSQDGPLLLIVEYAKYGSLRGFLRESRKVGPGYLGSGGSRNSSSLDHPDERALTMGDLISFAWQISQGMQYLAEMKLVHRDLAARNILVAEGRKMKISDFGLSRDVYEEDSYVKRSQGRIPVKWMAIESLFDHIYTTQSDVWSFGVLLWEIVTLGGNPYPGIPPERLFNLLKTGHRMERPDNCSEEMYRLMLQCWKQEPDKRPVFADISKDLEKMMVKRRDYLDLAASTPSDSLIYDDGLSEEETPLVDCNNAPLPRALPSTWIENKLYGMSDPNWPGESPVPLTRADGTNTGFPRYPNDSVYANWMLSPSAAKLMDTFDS
Experiment: cell-based
Assay Endpoint: IC50 (nM)
Form entry: value (nM) — number only.

The value of IC50 recorded for CCOc1cc(-c2ccc(N3C[C@H]4C[C@@H](C3)[C@H]4Nc3nc(C)ccc3F)nc2)c2c(C#N)cnn2c1 [Example 377] when tested on HEK-293 cells expressing a Kif5b-RET fusion protein (Homo sapiens) reads 39.4
